// data source = paper PMC6711126

Documented melting point across a set of compounds

smiles-representation: COc1cc(O)cc(Oc2nc3cccnc3n(CC(=O)O)c2=O)c1
melting point: 229 to 232 °C

smiles-representation: COc1ccc(Oc2nc3cccnc3n(CC(=O)O)c2=O)cc1O
melting point: 232 to 236 °C

smiles-representation: O=C(O)Cn1c(=O)c(Oc2ccc(O)c(O)c2)nc2cccnc21
melting point: 231 to 236 °C

smiles-representation: COc1cc(Oc2nc3cccnc3n(CC(=O)O)c2=O)cc(OC)c1OC
melting point: 235 to 243 °C

Documented melting point of `COc1c(O)cc(Oc2nc3cccnc3n(CC(=O)O)c2=O)cc1O` : 235 to 241 °C
